# Test system: HT-29
# experiment-summary: NCI tumour cell line growth inhibition, 48 h
The source made the active and inactive calls. Cut-off read from the data, not from the text of the source: active = GI50 up to about 1.1 µM and inactive = higher.
Outcome codes: class 1 (active), class 0 (inactive)

compound	category-label
Cc1cc(C)nc(NS(=O)(=O)c2ccc(NC(=O)c3cccc4c(Nc5ccc(S(N)(=O)=O)cc5)c5ccccc5nc34)cc2)n1	class 0
CCC1=NC(C(F)(F)F)(C(F)(F)F)N=C(/N=C(/N)N(C)C(C(C)C)P(=O)(OC(C)C)OC(C)C)O1 (stereo not given)	class 0
CCN(CC)CCCC(C)Nc1c2ccc(Cl)cc2nc2ccc(OC)cc12 (stereo not given)	class 1
Nc1n[n+](CC(=O)c2ccccc2)c2sc(-c3ccccc3)nn12	class 0
O=C(O)c1cc(O)nc(S)n1	class 0
CC(=O)C(CN(C)C)C(c1ccccc1)c1c(O)c2ccccc2oc1=O (stereo not given)	class 0
COc1ccc(N2C(=O)C3c4[nH]c5ccccc5c4C4CCC(C(C)C)CC4C3C2=O)cc1 (stereo not given)	class 0
O=C(O)CCn1cnc2c(S)ncnc21	class 0
CN(C(=O)C1CCCCCC1=O)c1ccccc1Cl (stereo not given)	class 0
CC(=O)OC(Cc1c(O)c2c(C)cccc2oc1=O)C(C)(C)O (stereo not given)	class 0
CC1(C)OC(=O)C2(O1)C(=O)C1CCCCC12 (stereo not given)	class 0
C=C1[C@@H]([C@@]2(C)C=CC(=O)C(C)(C)[C@@H]2CC(=O)OC)CC[C@@]2(C)[C@H](c3ccoc3)OC(=O)[C@H]3O[C@]132 [ANDIROBIN]	class 0
COC(=O)NN=C1C(C)(C)C(=O)C1(C)C	class 0
CC(=O)OC12C3C4C1C1C2C3C41OC(C)=O (stereo not given)	class 0
Cc1cc(O)c2c(c1O)C(=O)c1c(O)ccc(O)c1C2=O [Cynodontin]	class 0
COc1ccc(-c2cc(O)c3cc(OC)c(OC)cc3n2)cc1OC	class 0
CCOc1cc(/C=C2/C(C)=NN(c3cccc(Cl)c3)/C2=N/c2nc3ccccc3s2)ccc1O	class 0
COc1ccc(CN2C[C@H]3[C@@H](CC(=O)O[C@H]3C)CC2=O)cc1	class 0
CCOC(=O)c1cn2c(n1)sc1cc(Cl)ccc12	class 0
O=C1c2ccccc2CCCCCCCCCCC12OCCCO2	class 0
CC(=O)N1C(C(=O)NN2CCOCC2)CSC1c1ccccc1 (stereo not given)	class 0
Cc1cc2[nH]c(Cl)c(/C=C3\C(=O)Nc4ccccc43)c2cc1O	class 0
O=C(CC(Cl)=C(Cl)Cl)c1ccccc1	class 0
NCC(=O)N1CCN(c2nc(N3CCCC3)c3nc(Cl)c(NCc4ccccc4)nc3n2)CC1	class 0
O=C(c1ccc(Cl)cc1)C1OC12C(=O)Nc1c(Cl)cc(Cl)cc12 (stereo not given)	class 0

----------
# Tested on: A549
# experiment-summary: NCI tumour cell line growth inhibition, 48 h
The source made the active and inactive calls. No stated cut-off is given here; in the data, active = GI50 up to about 1.1 µM and inactive = higher.
Outcome codes: y for active, n for inactive

compound	category-label
Cc1ccc(S(=O)(=O)N/N=C/C(=C/c2ccc(Cl)cc2)CC(/C=N/NS(=O)(=O)c2ccc(C)cc2)=C\c2ccc(Cl)cc2)cc1	n
O=C(O)C(Cl)(Cl)Cl	n
Cc1ccc(C)c(COCCOCn2c(=O)[nH]c(=O)c3cc(Br)ccc32)c1	n
CCOC(=O)Cc1nnc2n(-c3ccccc3)c(=O)c3ccccc3n12	n
CCCCCCCSCC1OC(n2cnc3c(N)ncnc32)C(O)C1O (stereo not given)	n
Cc1ccc2nc(-c3ccccc3)cc(=O)n2c1	n
CC(=O)OC(Cc1c(O)c2c(C)cccc2oc1=O)C(C)(C)O (stereo not given)	n
CCCC(O)[C@@]1(CC)CC(C)C(O)(C2(C)C[C@H](C)[C@@H](C(CC)C(=O)C(C)[C@@H](O)[C@H](C)C3OC(O)(C(CC)C(=O)O)[C@@H](C)C(O)C3CC)O2)O1 (stereo not given in full)	y
COc1cc([C@@H]2c3cc4c(cc3[C@@H](NC(=O)c3ccc(C#N)cc3)C3COC(=O)[C@@H]32)OCO4)cc(OC)c1O (stereo not given in full)	y
N#Cc1ccc(C(=O)/C=C/c2ccc(O)c(O)c2)cc1	n

----------
# System: DU-145
# experiment-summary: NCI tumour cell line growth inhibition, 48 h
Activity calls are given as the source filed them. Rule as the data show it: active = GI50 up to about 1.1 µM and inactive = higher.
Listed compounds paired with reported GI50

compound	GI50
Cc1ccc2nc(-c3ccccc3)cc(=O)n2c1	> 100 µM (inactive)
Cc1ccc(S(=O)(=O)NC(=O)N[C@@H](Cc2c[nH]cn2)C(=O)O)cc1	> 100 µM (inactive)
COc1cc2c(cc1O)-c1c(cnn1-c1ccc([N+](=O)[O-])cc1)CCC2	14.8 µM (inactive)
COc1ccc(/C=C2/SC(c3ccc(Cl)cc3)N(NC(=O)CCCCCCCCC(=O)NN3C(=O)/C(=C\c4ccc(OC)c(OC)c4)SC3c3ccc(Cl)cc3)C2=O)cc1OC (configuration not stated)	> 100 µM (inactive)
COc1ccc(-c2cc(=O)c3c(O)c(OC)c(OC)c(OC)c3o2)cc1OC [5-DEMETHYLNOBILETIN]	> 100 µM (inactive)
CCOC(=O)C1C(=O)CC(O)(c2ccccc2)C(C(=O)OCC)C1c1ccc(OC)cc1 (configuration not stated)	47.3 µM (inactive)
Cc1ccc(C)n1-c1ccccc1C1C=Cn2c(=O)oc3c(OC(C)C)c(OC(C)C)c(O)c1c32 (configuration not stated)	90.4 µM (inactive)
COc1cc2ccc(C(=O)NCCCNC(=O)c3ccc4cc(OC)c(OC)cc4c3)cc2cc1OC	> 100 µM (inactive)
O=C[C@@H](CO)O[C@H](C=O)c1c[nH]c(=O)[nH]c1=O	100 µM (inactive)
O=C1Nc2ccccc2/C1=C1/Nc2ccccc2/C1=N/OCCOCCO	1.39 µM (inactive)
N=C(/C=C/c1ccc(-c2cn3cc(/C=C/C(=N)N4CCCC4)ccc3n2)cc1)N1CCCC1	50 µM (inactive)
Cn1c2ccccc2c(=NNc2cccc(C(=O)O)c2)c2ccccc21	11.9 µM (inactive)

----------
# System: UO-31
# experiment-summary: NCI tumour cell line growth inhibition, 48 h
Activity calls are given as the source filed them. Rule as the data show it: active = GI50 up to about 1.1 µM and inactive = higher.

compound	GI50
O=c1oc2ccccc2cc1-c1cn2ccccc2n1	2.36 µM (inactive)
COc1cccc(C2c3cc4c(cc3OC(C)(O)C2C)OCO4)c1O (centres undefined)	6.14 µM (inactive)
C/C(=N\NC(=S)Nc1ccc([N+](=O)[O-])cc1S(=O)(=O)O)c1ccccn1	45.6 µM (inactive)
COC(=O)c1ccc(/C=C2\CCc3ccccc3C2=O)cc1	> 100 µM (inactive)
CC1=C(c2cc(C(=O)Nc3cccc(C(F)(F)F)c3)nc(NC#N)n2)Sc2ccccc2N1	> 100 µM (inactive)
CC(=O)OCCOCNC(=S)N/N=C(\C)c1cnc2ccccc2n1	41.5 µM (inactive)
Cc1cn(CCCC2=NCCCN2)c(=O)[nH]c1=O	> 100 µM (inactive)
Cc1ccc(C2c3c(n(C)c(=O)n(C)c3=O)OC(N(C)C)(N(C)C)C2(F)F)cc1 (centres undefined)	> 100 µM (inactive)
Cc1[nH]c2ncn(N)c(=N)c2c1Cc1ccccc1	26.1 µM (inactive)
CC1CCCCCC(=O)c2c(O)cc(O)cc2CC(=O)O1 (centres undefined) [CURVULARIN]	45 µM (inactive)
O=C(/C=C/c1ccc2c(c1)OCO2)c1ccc(O)cc1	13.4 µM (inactive)
CCOC(=O)C1C(=O)CC(O)(c2ccccc2)C(C(=O)OCC)C1c1ccc(OC)cc1 (centres undefined)	61.2 µM (inactive)
CCOC(=O)C(O)(CC1=NC(C(=O)OC)(C(=O)OC)C(c2cccc(C=O)c2)O1)C(=O)OCC (centres undefined)	> 100 µM (inactive)
COc1cccc(NC(=O)CC(=O)N2NC(c3ccccc3)C(/N=N/c3cccc(C(=O)O)c3)C2=O)c1 (centres undefined)	27.5 µM (inactive)
Cc1ccc2c(c1)C(c1cccc3ccccc13)OC2=O (centres undefined)	> 100 µM (inactive)
S=C(N/N=C/c1ccccc1)NC12CC3CC(CC(C3)C1)C2	> 100 µM (inactive)
CS/C(=C(\S)c1ccccc1)c1ccccc1	> 100 µM (inactive)
COC(=O)[C@@H]1CN(C(=O)CCc2ccccc2)C(=O)N1C(=O)OCc1ccccc1	> 100 µM (inactive)
O=C1c2cccnc2C(=O)c2c1nc1ccccc1c2-c1ccc2c3c(nc4ccccc42)C(=O)c2cccnc2-c13	1.24 µM (inactive)
COC(=O)C(Cc1c[nH]c2ccccc12)NC1=Nc2ccncc2S(=O)(=O)N1c1ccccc1 (centres undefined)	32.6 µM (inactive)
CCOC(=O)Cc1nnc2n(-c3ccccc3)c(=O)c3ccccc3n12	> 100 µM (inactive)
NCC(=O)N1CCN(c2nc(N3CCCC3)c3nc(Cl)c(NCc4ccccc4)nc3n2)CC1	1.66 µM (inactive)
CC1=C(C(=O)NCCc2ccccc2)CC(C(=O)NCCc2ccccc2)=C(C)N1	65.8 µM (inactive)
O=C1/C(=C/c2ccc(Cl)cc2)Oc2ccccc21	16.8 µM (inactive)
